The reported measurements were obtained from PubChem BioAssay AID463074.

Tested on: HMLE_sh_eGFP viability, CellTiter-Glo luminescence, 72 h
Assay: cytotoxicity in HMLE control line with eGFP shRNA, dose response, counter-screen for HMLE_sh_ECad selective toxicity project, cell-based, HMLE_sh_eGFP, luminescence (AID 463074);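 note: counterscreen control line to flag general toxicity for the HMLE_sh_ECad screen; potency for loss of viability as luminescence drops below DMSO wells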
Calls of active or inactive are those of the source.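 Rule for the calls: active = AC50 no more than tenfold above the top dose tested, or full inhibition at every dose with a flat fit (cut at about 19 µM in these data); inconclusive = flat curve fit with inhibition between 30% and 70%, or poor fit; inactive = AC50 more than tenfold above the top dose tested.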
compounds and their reported AC50

compound	AC50
Cc1ccc(/C=N/NC(=O)c2ccc3c(c2)OCCO3)s1	2.49 µM
C/C(=N\OCc1nc2ccccc2c(=O)n1/N=C/c1cc([N+](=O)[O-])ccc1O)c1ccccc1	16 µM
O=C(Nc1cccc(-c2csc(Nc3ccc(Cl)cc3)n2)c1)c1cc([N+](=O)[O-])cc(C(F)(F)F)c1	6.88 µM
CCOc1ccccc1CNc1ncnc2ccc(-c3c(C)noc3C)cc12	6.05 µM
Cc1ccc(NC(=O)NCC2CCN(Cc3cccc(Cl)c3)CC2)cc1Cl	6.9 µM
O=C(NCc1cccnc1)/C(=C/c1ccc(-c2cccc(Cl)c2)o1)S(=O)(=O)c1ccccc1	2.66 µM
Cc1cc(C)cc(NC(=O)CSc2ccc(-c3ccccn3)nn2)c1	3.61 µM
CC(C)(C)C1CCC2(CC1)C(C#N)=C(SCC(=O)NC1CCCCC1)NC(=O)C2C#N (configuration not stated)	9.88 µM
Cc1nn2c(COc3ccc(NC(=O)c4ccccc4Cl)cc3)nnc2c2ccccc12	3.08 µM
Cc1ccsc1/C=C/c1ccc2cccc(O)c2n1	17 µM
COc1cc2nc(CN3CC=C(c4ccccc4)CC3)[nH]c(=O)c2cc1OC	3.39 µM
CNC[C@H](CC1CCCCC1)NC[C@H](CO)NCCc1cccc(C(F)(F)F)c1	6.71 µM
C=C(C)COc1ccc(-c2nc(N)ncc2-c2ccc(Cl)cc2)c(O)c1	4 µM
CCOC(=O)Nc1ccc(Cc2ccncc2)cc1	> 19.5 µM (inactive)
Fc1ccc(C(OCCN2CCN(CCCc3ccccc3)CC2)c2ccc(F)cc2)cc1	3.12 µM
CCOC(=O)c1c(C)sc2c1N(C(=O)CCl)c1cc(Cl)ccc1S2	3.66 µM
O=C(c1cnc2ccc3ccccc3c2c1)c1cc(F)ccc1O	0.86 µM
O=C(NNC(=O)c1cc(-c2ccc(Cl)c(Cl)c2)nc2ccccc12)Nc1ccccc1	6.4 µM
COc1ccc(Cc2nnc(N/N=C/c3ccc(O)cc3O)[nH]c2=O)cc1OC	8.14 µM
COc1cc(OC)cc(-c2sc3ccc(OC)cc3c2-c2ccc3cc[nH]c3c2)c1	3.34 µM
CC(C)(C)C1CCC(CN2C(Nc3ccccc3)=NC[C@@H]2Cc2ccccc2)CC1 (some centres not stated)	6.54 µM
Cc1cc(SCC(=O)N/N=C/c2ccc(O)cc2O)c(C)cc1Br	4.42 µM
C#CCOCCOCCOCCNc1nc(N2CCN(C(=O)CCCCCCCCCCNC(=O)Cn3cc(C[C@@H](C)O)nn3)CC2)nc(N2CCN(C(=O)CCCCCCCCCCNC(=O)[C@H](CCCCN)n3cc(C[C@@H](C)CC)nn3)CC2)n1	6.8 µM
c1ccc(-c2nnc3sc(CN4CCc5ccccc54)cn23)cc1	3.51 µM
O=C(O)c1ccc(Cl)c(S(=O)(=O)N(Cc2ccccc2)c2ccc(F)cc2)c1	14.5 µM
COc1ccc(-c2nn(-c3ccccc3)cc2/C=N/N2C(=O)CSC2=S)cc1	3.97 µM
CCCc1cc(-c2nc(-c3ccc(Cl)cc3)cs2)ccn1	13 µM
Cc1ccc(NC2=NCC(Cc3ccc(Br)cc3)S2)cc1 (configuration not stated)	6.73 µM
CC(C)(C)c1cc(C(=O)NNc2cc(C(F)(F)F)ccc2Cl)n(Cc2ccccc2)n1	4.18 µM
CC(=O)c1c(C)oc2c1C(=O)c1ccccc1C2=O	4.4 µM
CCOCCCNC(=O)/C(C#N)=C/c1ccc([N+](=O)[O-])o1	8.21 µM
O=C(Nc1cccc(Cl)c1)Nc1sccc1-c1nc2ccccc2s1	> 19.5 µM (inactive)

----------
System: HMLE_sh_eGFP viability, CellTiter-Glo luminescence, 72 h
Test: cytotoxicity in HMLE control line with eGFP shRNA, dose response, counter-screen for HMLE_sh_ECad selective toxicity project, cell-based, HMLE_sh_eGFP, luminescence (AID 463074);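 note: counterscreen control line to flag general toxicity for the HMLE_sh_ECad screen; potency for loss of viability as luminescence drops below DMSO wells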
compounds and their reported AC50
measurement label: AC50

compound	tgt	measurement label	observed value
CC(C)(C)c1ccc(/C=C(\c2nc3ccccc3[nH]2)S(=O)(=O)c2ccccc2)cc1	HMLE_sh_eGFP viability, CellTiter-Glo luminescence, 72 h	AC50	1.42 µM
Oc1nc(Nc2cccc(Cl)c2)sc1/C=C1\C=Nc2ccccc21	HMLE_sh_eGFP viability, CellTiter-Glo luminescence, 72 h	AC50	3.78 µM
Cc1ccc(C(C)C)c(OCc2ccc(C(=O)N/N=C/c3ccc(O)c(O)c3)cc2)c1	HMLE_sh_eGFP viability, CellTiter-Glo luminescence, 72 h	AC50	4.66 µM
COc1ccc(/C=N/Nc2cc(N3CCCC3)nc(N3CCCC3)n2)cc1	HMLE_sh_eGFP viability, CellTiter-Glo luminescence, 72 h	AC50	5.14 µM
Cc1cccc(-c2cc3nc4c(c(NCc5ccco5)n3n2)CCCC4)c1	HMLE_sh_eGFP viability, CellTiter-Glo luminescence, 72 h	AC50	7.25 µM
OC(CNCCc1ccc(C(F)(F)F)cc1)COc1cccc2ccccc12 (configuration not stated)	HMLE_sh_eGFP viability, CellTiter-Glo luminescence, 72 h	AC50	3.54 µM
CCCOc1ccccc1-n1sc2c(c1=S)-c1cc(OC)cc3c1N(C(=O)C3=O)C2(C)C	HMLE_sh_eGFP viability, CellTiter-Glo luminescence, 72 h	AC50	9.1 µM

----------
molecules and their reported AC50
Tested on: HMLE_sh_eGFP viability, CellTiter-Glo luminescence, 72 h
Assay: cytotoxicity in HMLE control line with eGFP shRNA, dose response, counter-screen for HMLE_sh_ECad selective toxicity project, cell-based, HMLE_sh_eGFP, luminescence (AID 463074);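 note: counterscreen control line to flag general toxicity for the HMLE_sh_ECad screen; potency for loss of viability as luminescence drops below DMSO wells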
The source made the active and inactive calls.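 Rule for the calls: active = AC50 no more than tenfold above the top dose tested, or full inhibition at every dose with a flat fit (cut at about 19 µM in these data); inconclusive = flat curve fit with inhibition between 30% and 70%, or poor fit; inactive = AC50 more than tenfold above the top dose tested.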
measurement label: AC50

molecule	observed value
N#C/C(=C/c1cn(-c2ccccc2)nc1-c1cccc(OCc2ccc(F)cc2)c1)C(=O)NCCCn1ccnc1	3.4 µM
Cn1nnnc1Sc1ncnc2scc(-c3cc4ccccc4o3)c12	1.17 µM
CC/C(=N\Nc1ccccc1)c1c(O)n(-c2ccccc2)c(=O)[nH]c1=O	2.16 µM
Cc1cc(/C=N/n2c(COc3ccccc3)nc3ccccc3c2=O)c(O)c([N+](=O)[O-])c1	> 10 µM (inactive)
CCCn1c(=O)c(C(=O)NNS(=O)(=O)c2ccc(Cl)cc2)c(O)c2ccccc21	2.03 µM
COC(=O)c1ccc(/C=C/c2c(-c3ccsc3)sc3ccccc23)cc1	7.46 µM
Cc1cc(Nc2cccc(Cl)c2)nc(NCc2ccccc2)n1	3.73 µM
Cc1cccc(OCc2n(CC(=O)OC3CC(C)CCC3C(C)C)c3ccccc3[n+]2C)c1 (centres undefined)	3.47 µM
Nc1cc(-c2ccc(OC(F)(F)F)cc2)nn1-c1ccc(Cl)c(Cl)c1	5.83 µM
CC(C)(C)c1ccc(NC(=O)N2CCCN(c3c(Cl)cncc3Cl)CC2)cc1	2.85 µM
CCOC(=O)c1c(C)nc2c(c1-c1ccc(Cl)cc1)C(=O)CC(C)(C)C2	18.1 µM
Cc1ccc(N/N=C/c2cccnc2)cc1	6.14 µM
COc1ccc2sc(-c3ccc(SC)cc3)c(C#CC(C)(C)O)c2c1	6.66 µM
Cc1cccc(NC(=S)N/N=C/c2c[nH]c3ccccc23)c1	1.63 µM
S=c1[nH]nc(C2CCCCC2)n1/N=C/C(Cl)=C\c1ccccc1	8.35 µM
Cc1cccc(-c2oc3ccccc3c2C#CCCCCO)c1	7.62 µM
COC(=O)c1c(NC(=O)c2ccco2)sc2c1CCC2	> 19.5 µM (inactive)
COC(=O)C1=C(C)N(Cc2ccccc2)C(=NCCc2c[nH]c3ccccc23)N[C@H]1c1cccc(F)c1	7.06 µM
c1cc(SC2CCCCC2)cc(-c2nc3cnccn3c2NC2CCCCC2)c1	1.78 µM
Nc1nnc(SCC(=O)OCC(=O)NC2CCCCC2)s1	> 19.5 µM (inactive)
COc1c(CC=C(C)C)cc(C2CC(=O)c3c(O)cc(O)cc3O2)cc1CC=C(C)C (centres undefined)	3.65 µM
O=C(CN1c2ccccc2Sc2ccccc21)NNC(=O)Nc1ccc(Cl)c(Cl)c1	3.46 µM
COc1ccc(C(=O)/C=C2/C(=O)Nc3ccccc32)c(OC)c1	6.75 µM
Cc1cc(N2CCCCC2)n2ncc(-c3ccc(Cl)cc3)c2n1	6.51 µM
Cc1cccc(NC(=O)c2cc(-c3cc(C)cc(C)c3O)n[nH]2)c1	4.2 µM
COc1ccc2sc(-c3ccccc3OC)c(-c3ccc(O)cc3)c2c1	6.71 µM
CCCCC(=O)Nc1nc(C)c(-c2csc(Nc3cc(OC)ccc3OC)n2)s1	2.27 µM
Brc1ccc(/C=N/Nc2ccccc2)cc1	8.16 µM
O=C(/C(=C/c1cccc(Cl)c1)c1nc2ccccc2[nH]1)c1ccccc1	3.35 µM
